System: HIV
protocol-description: MT4 assay: antiviral HIV activity (cell protection, cell titer glo readout at 96 hours)
Type: cell-based
condition-set: Human immunodeficiency virus 1, MT4, 96 h, MT4 cells, cell titer glo readout at 96 hours, 10 point dose response; read-out: HIV MT4 Assay IC50
Catalogue of molecules with associated IC50
experimental-readout: IC50 (nM)

{"molecule": "Cc1nc2c(cc(-c3nc(N4CCC5(CC4)OCCO5)ns3)n2C)c(-c2cc(F)c3c(c2C)CCCO3)c1[C@H](OC(C)(C)C)C(=O)O [Example 377]", "unit-abbrev": "nM", "reported-value": 5.9}
{"molecule": "Cc1nc2c(cc(-c3nc(N4CCN(C5CCOCC5)CC4)no3)n2C)c(-c2cc(F)c3c(c2C)CCCO3)c1[C@H](OC(C)(C)C)C(=O)O (atropisomer, axis not shown; (M)) [Example 27]", "unit-abbrev": "nM", "reported-value": 4.6}
{"molecule": "Cc1nc2c(cc(-c3ccnc(C(=O)N4CCN(S(C)(=O)=O)CC4)c3)n2C)c(-c2cc(F)c3c(c2C)CCCO3)c1[C@H](OC(C)(C)C)C(=O)O (atropisomer, axis not shown) [Example 146]", "unit-abbrev": "nM", "reported-value": 487}
{"molecule": "Cc1nc2c(cc(-c3ccnc(N4CCN(C(=O)c5ccccc5)CC4)c3)n2C)c(-c2cc(F)c3c(c2C)CCCO3)c1[C@H](OC(C)(C)C)C(=O)O (atropisomer, axis not shown) [Example 82]", "unit-abbrev": "nM", "reported-value": 47.7}
{"molecule": "Cc1nc2c(cc(C(=O)N(C)C)n2C)c(-c2cc(F)c3c(c2C)CCCO3)c1[C@H](OC(C)(C)C)C(=O)O [Example 270]", "unit-abbrev": "nM", "reported-value": 112}
{"molecule": "Cc1nc2c(cc(-c3ccnc(NC4COC4)c3)n2C)c(-c2cc(F)c3c(c2C)CCCO3)c1[C@H](OC(C)(C)C)C(=O)O (atropisomer, axis not shown) [Example 81]", "unit-abbrev": "nM", "reported-value": 2280}
{"molecule": "Cc1nc2c(cc(-c3nnc(-c4ccc5c(cnn5C)c4)o3)n2C)c(-c2cc(F)c3c(c2C)CCCO3)c1[C@H](OC(C)(C)C)C(=O)O (atropisomer, axis not shown; (M)) [Example 28]", "unit-abbrev": "nM", "reported-value": 1.8}
{"molecule": "Cc1nc2c(cc(-c3nnc(N4CCN(CC5CC5)CC4)o3)n2C)c(-c2cc(F)c3c(c2C)CCCO3)c1[C@H](OC(C)(C)C)C(=O)O [Example 337]", "unit-abbrev": "nM", "reported-value": 4.6}
{"molecule": "Cc1nc2c(cc(-c3nc(N4CCN(CC5CCOCC5)CC4)ns3)n2C)c(-c2cc(F)c3c(c2C)CCCO3)c1[C@H](OC(C)(C)C)C(=O)O [Example 390]", "unit-abbrev": "nM", "reported-value": 5.4}
{"molecule": "Cc1nc2c(cc(/C=C/C(=O)NCC3CC3)n2C)c(-c2cc(F)c3c(c2C)CCCO3)c1[C@H](OC(C)(C)C)C(=O)O [Example 415]", "unit-abbrev": "nM", "reported-value": 40.1}
{"molecule": "Cc1nc2c(cc(CNC(=O)c3ccc4c(cnn4C)c3)n2C)c(-c2cc(F)c3c(c2C)CCCO3)c1[C@H](OC(C)(C)C)C(=O)O (atropisomer, axis not shown; (M)) [Example 412]", "unit-abbrev": "nM", "reported-value": 43.1}

The origin of these recorded values is patent US20150191469A1.
